// reported hERG current change (%, negative = inhibition) at 10uM for each item listed
# Target: human ether-à-go-go-related gene (hERG) potassium channel (human, UniProt Q12809)
# Sequence (Q12809 whole entry, looked up): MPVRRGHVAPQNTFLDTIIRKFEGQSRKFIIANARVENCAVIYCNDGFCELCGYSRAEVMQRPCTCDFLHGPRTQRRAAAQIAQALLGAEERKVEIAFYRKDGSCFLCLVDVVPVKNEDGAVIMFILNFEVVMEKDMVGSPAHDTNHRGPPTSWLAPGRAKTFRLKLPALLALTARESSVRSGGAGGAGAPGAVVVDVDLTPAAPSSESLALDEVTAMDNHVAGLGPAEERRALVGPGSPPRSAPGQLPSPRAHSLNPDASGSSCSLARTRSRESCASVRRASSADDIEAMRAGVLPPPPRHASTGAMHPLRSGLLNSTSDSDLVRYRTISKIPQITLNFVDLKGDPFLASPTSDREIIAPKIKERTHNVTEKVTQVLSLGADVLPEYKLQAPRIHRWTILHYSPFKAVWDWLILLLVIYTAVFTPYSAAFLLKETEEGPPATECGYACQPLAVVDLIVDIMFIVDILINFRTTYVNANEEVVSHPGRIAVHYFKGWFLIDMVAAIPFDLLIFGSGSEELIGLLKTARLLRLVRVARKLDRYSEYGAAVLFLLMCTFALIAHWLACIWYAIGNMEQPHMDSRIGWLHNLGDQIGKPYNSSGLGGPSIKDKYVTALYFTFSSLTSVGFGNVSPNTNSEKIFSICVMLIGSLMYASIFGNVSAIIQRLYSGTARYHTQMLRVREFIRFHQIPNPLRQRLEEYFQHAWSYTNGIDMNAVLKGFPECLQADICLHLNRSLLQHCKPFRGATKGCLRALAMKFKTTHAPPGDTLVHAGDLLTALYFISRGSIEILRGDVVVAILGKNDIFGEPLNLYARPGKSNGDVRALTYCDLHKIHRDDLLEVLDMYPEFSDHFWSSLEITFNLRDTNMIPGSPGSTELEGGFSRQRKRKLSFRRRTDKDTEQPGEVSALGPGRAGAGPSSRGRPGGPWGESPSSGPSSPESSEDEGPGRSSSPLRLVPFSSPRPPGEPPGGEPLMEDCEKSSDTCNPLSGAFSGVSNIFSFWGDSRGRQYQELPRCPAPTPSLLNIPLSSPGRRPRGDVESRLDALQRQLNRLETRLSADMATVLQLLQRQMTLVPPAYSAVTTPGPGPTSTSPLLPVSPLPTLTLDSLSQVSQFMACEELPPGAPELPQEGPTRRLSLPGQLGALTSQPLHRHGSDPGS
# Method description: primary screen, population patch clamp on CHO cells stably expressing hERG; higher = less effect of the substance
In all, about 310,000 compounds went through this assay and about 14,000 (4.5%) showed an effect of 50% or more. The effect is printed as a negative number. The list comes from a sample in which strong results are over-represented; it also holds close analogues and randomly drawn compounds.
Number only, in %; omit the unit.

Guide cases for hERG current change (%, negative = inhibition) at 10uM, answers given:
CCc1cc2ccccc2nc1Cl
6.29
CC(O)CNc1cnccn1 (stereo not shown)
8.76
COc1ccc(CCn2c(=N)c(C(=O)NCC3CCCO3)cc3c(=O)n4cccc(C)c4nc32)cc1 (stereo not shown)
-79.7
CCSC(=O)NC12CC3CC(CC(C3)C1)C2
6.27

### Prompt Data request, read-out hERG current change (%, negative = inhibition) at 10uM, for `C=CCNc1nc(N2CCOCC2)c(C#N)c2c1CN(C)CC2`
### Response -14.1

### Prompt Data request, read-out hERG current change (%, negative = inhibition) at 10uM, for `CCc1nc(NCc2ccccc2)c(C#N)c2c1CCCC2`
### Response 23.3

### Prompt Data request, read-out hERG current change (%, negative = inhibition) at 10uM, for `CCN1CCc2c(C#N)c(N3CCOCC3)nc(NCCO)c2C1`
### Response 11.8

----------
# Target: human ether-à-go-go-related gene (hERG) potassium channel (human, UniProt Q12809)
# Method description: primary screen, population patch clamp on CHO cells stably expressing hERG; higher = less effect of the substance
Out of some 310,000 compounds screened, about 14,000 (4.5%) showed an effect of 50% or more. The effect is printed as a negative number. Only a selection was taken, and strong results are over-represented in it overall.
// reported hERG current change (%, negative = inhibition) at 10uM for each item listed
The reply must contain the numeric value and, after it, the unit.

### Prompt Test system human ether-à-go-go-related gene (hERG) potassium channel (human, UniProt Q12809); read-out hERG current change (%, negative = inhibition) at 10uM; what value for `COCCSc1nnc(NC(=O)c2cc(C(=O)OC)cc([N+](=O)[O-])c2)s1` ?
### Response 11.4%

### Prompt Test system human ether-à-go-go-related gene (hERG) potassium channel (human, UniProt Q12809); read-out hERG current change (%, negative = inhibition) at 10uM; what value for `CC(=O)Nc1sc(-c2ccccc2)nc1-c1ccccc1` ?;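 also: peak tail current of the secondary pulse compared with the same well before compound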
### Response 14%

### Prompt Test system human ether-à-go-go-related gene (hERG) potassium channel (human, UniProt Q12809); read-out hERG current change (%, negative = inhibition) at 10uM; what value for CC(C)(C)n1nnnc1C(c1ccc(Cl)cc1)N1CCSCC1 (stereo not shown) ?;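 also: peak tail current of the secondary pulse compared with the same well before compound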
### Response -0.553%

### Prompt Test system human ether-à-go-go-related gene (hERG) potassium channel (human, UniProt Q12809); read-out hERG current change (%, negative = inhibition) at 10uM; what value for CCC(C)(C)n1nnnc1C(C(C)C)N1CCN(C)CC1.Cl (stereo not shown) ?;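 also: peak tail current of the secondary pulse compared with the same well before compound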
### Response 6.63%

----------
# Target: human ether-à-go-go-related gene (hERG) potassium channel (human, UniProt Q12809);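 also: peak tail current of the secondary pulse compared with the same well before compound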
# Method description: primary screen, population patch clamp on CHO cells stably expressing hERG; higher = less effect of the substance
Among all 310,000 compounds or so, about 14,000 (4.5%) showed an effect of 50% or more. Effects have a minus sign here. This excerpt belongs to a sample that is enriched for strong results.
Observed property: hERG current change (%, negative = inhibition) at 10uM (%)
Number only, in %; omit the unit.

O=C(COC(=O)c1cc([N+](=O)[O-])ccc1NCCO)c1ccccc1
-15.9
O=C(OCc1ccccc1F)c1ccc2c(c1)-c1ccccc1C2=O
16.4
CC(=O)c1cccc(CN2CCC(n3nccc3NC(=O)CCOc3ccccc3)CC2)c1
-3.2
O=c1c2ccccc2n(Cc2ccc(Cl)cc2)c(=O)n1Cc1ccco1
4.77
CCOC(=O)/C=C/c1cnn(-c2ccccc2)c1
3
O=C(Cn1ccc([N+](=O)[O-])n1)N1CCc2ccccc21
-2.32

### Prompt Data request, read-out hERG current change (%, negative = inhibition) at 10uM, for `Clc1ccc(CSc2nnc(-c3ccccn3)n2Cc2ccco2)c(Cl)c1`
### Response -5.15

### Prompt Data request, read-out hERG current change (%, negative = inhibition) at 10uM, for `COC(=O)c1ccc(NC(=O)CSc2nn3c(=O)c(C)nnc3s2)cc1`
### Response 7.44

### Prompt Data request, read-out hERG current change (%, negative = inhibition) at 10uM, for `Cc1ccc(CN2CCC(n3nccc3NC(=O)CCOc3ccccc3)CC2)o1`
### Response -20.7

# credit: paper PMC4336329
